biological target: COVID S1 RBM Fc fusion (Antigen 2) (SARS-CoV-2, UniProt P0DTC2 437-508); assay: phage ELISA
The threshold is 1 fold. Values of ELISA fold over background beneath it are tagged condition met; values meeting or exceeding it are tagged condition not met.

SARS-CoV-2 variant 1-10 (antibody, V domains shown) VH: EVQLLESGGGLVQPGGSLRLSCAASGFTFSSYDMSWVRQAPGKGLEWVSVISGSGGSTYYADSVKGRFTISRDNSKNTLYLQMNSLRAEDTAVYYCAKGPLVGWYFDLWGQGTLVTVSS VL: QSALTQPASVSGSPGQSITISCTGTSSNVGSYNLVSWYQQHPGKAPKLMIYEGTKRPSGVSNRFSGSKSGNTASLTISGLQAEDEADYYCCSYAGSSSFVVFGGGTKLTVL
condition not met
SARS-CoV-2 variant 1-25 (antibody, V domains shown) VH: EVQLLESGGGLVQPGGSLRLSCAASGFTFSDYAMNWVRQAPGKGLEWVSIISGSGGSTYYADSVKGRFTISRDNSKNTLYLQMNSLRAEDTAVYYCAREGYRDYLWYFDLWGQGTLVTVSS VL: QSALTQPASVSGSPGQSITISCSGTSSDVGSYNLVSWYQQHPGKAPKLMIYEASKRPSGVSNRFSGSKSGNTASLTISGLQAEDEADYYCCSYAGSSTVFGGGTKLTVL
condition met
SARS-CoV-2 variant 1-36 (antibody, V domains shown) VH: EVQLLESGGGLVQPGGSLRLSCAASGLTFSSYAMSWVRQAPGKGLEWVSDISGSGGSTYYADSVKGRFTISRDNSKNTLYLQMNSLRAEDTAVYYCVKGTIPIFGVIRSAFDYWGQGTLVTVSS VL: QSALTQPASVSGSPGQSITISCTGTSSDVGSYSLVSWYQQHPGKAPKLMIYEGDKRPSGVSNRFSGSKSGNTASLTISGLQAEDEADYYCCSYAGSYSYVVFGGGTKLTVL
condition met

Exercise: Is ELISA fold over background strictly under 1 fold for the entry SARS-CoV-2 variant 1-28 (antibody, V domains shown) VH: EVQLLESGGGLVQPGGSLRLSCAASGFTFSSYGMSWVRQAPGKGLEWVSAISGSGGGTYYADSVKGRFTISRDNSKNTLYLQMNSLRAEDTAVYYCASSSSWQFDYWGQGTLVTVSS VL: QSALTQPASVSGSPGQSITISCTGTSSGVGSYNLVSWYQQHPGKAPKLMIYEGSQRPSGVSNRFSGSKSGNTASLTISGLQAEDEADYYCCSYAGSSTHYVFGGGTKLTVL ?
Solution: condition not met

Exercise: State whether 1 fold exceeds ELISA fold over background recorded for SARS-CoV-2 variant 1-48 (antibody, V domains shown) VH: EVQLLESGGGLVQPGGSLRLSCAASGFTFSSHAMYWVRQAPGKGLEWVSAISGSAGSTYYADSVKGRFTISRDNSKNTLYLQMNSLRAEDTAVYYCAHDTKDFWSGYCIFDPWGQGTLVTVSS VL: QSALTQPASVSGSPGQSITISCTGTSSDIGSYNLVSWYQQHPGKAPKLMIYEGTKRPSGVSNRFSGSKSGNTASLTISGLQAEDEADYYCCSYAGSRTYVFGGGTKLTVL .
Solution: condition met

Exercise: State whether 1 fold exceeds ELISA fold over background recorded for SARS-CoV-2 variant 1-30 (antibody, V domains shown) VH: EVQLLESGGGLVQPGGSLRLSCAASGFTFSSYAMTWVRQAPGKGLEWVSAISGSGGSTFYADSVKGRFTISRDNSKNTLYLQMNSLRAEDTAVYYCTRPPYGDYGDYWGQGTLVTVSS VL: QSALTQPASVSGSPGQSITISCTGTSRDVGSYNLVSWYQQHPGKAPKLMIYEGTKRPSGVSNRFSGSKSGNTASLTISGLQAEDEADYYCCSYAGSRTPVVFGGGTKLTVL .
Solution: condition not met

Exercise: Take the binder SARS-CoV-2 variant 1-3 (antibody, V domains shown) VH: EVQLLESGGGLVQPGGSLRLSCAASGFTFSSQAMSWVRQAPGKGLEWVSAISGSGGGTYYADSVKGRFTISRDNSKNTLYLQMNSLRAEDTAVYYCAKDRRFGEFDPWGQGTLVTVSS VL: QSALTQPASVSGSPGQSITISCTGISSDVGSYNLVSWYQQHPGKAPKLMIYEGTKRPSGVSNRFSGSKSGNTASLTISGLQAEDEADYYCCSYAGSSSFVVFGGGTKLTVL and say whether its ELISA fold over background is less than 1 fold.
Solution: condition not met
